Cited source for all entries: paper PMC9482650

Field: pKd. Provide a value for each of the binders that follow.
target: MAGI3_2, Q5TCQ9; assay: holdup assay; set-up: key: below the threshold = too weak to quantify, mostly under pKd 3.1 to 4; details: plain residues with an end cap or a label only (N-terminal biotin on a linker: ado-ado)
Sequence (Q5TCQ9 398-503): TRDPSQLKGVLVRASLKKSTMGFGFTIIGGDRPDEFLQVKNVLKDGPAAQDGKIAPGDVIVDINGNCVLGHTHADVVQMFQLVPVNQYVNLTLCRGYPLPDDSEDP
One number for each entry.

A selection of reference data follows.
Sure, the documented pKd for SFISKKEWYV [NECTIN1, Q15223] is 5.55

Looking up PYPTADHMLA [JUP, P14923] , I see its pKd listed as 3.73

The reported pKd of the binder RDPPAEWTRV [PTPN18, Q99952] was 4.27

Now for the binder whose pKd we want.
Please fill in: pKd reported for TRKRSGEAAV [PFKM, P08237] = 4.48
